Subject Of Test: Histone deacetylase 1 (Homo sapiens, UniProt Q13547)
Sequence (Q13547 whole entry): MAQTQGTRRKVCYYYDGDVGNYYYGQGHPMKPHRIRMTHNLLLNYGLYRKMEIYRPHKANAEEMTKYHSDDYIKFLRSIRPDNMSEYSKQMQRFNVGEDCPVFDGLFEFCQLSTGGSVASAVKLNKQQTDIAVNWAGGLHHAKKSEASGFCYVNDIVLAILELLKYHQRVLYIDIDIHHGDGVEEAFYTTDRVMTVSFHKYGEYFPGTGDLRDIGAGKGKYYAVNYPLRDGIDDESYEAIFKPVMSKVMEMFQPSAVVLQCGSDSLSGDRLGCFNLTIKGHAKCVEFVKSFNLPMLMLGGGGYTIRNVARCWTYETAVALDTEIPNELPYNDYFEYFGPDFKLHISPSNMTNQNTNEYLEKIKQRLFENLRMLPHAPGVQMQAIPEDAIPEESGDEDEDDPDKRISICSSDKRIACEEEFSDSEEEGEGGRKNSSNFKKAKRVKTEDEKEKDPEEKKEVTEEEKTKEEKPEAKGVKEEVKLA
Assay Comment: Inhibition of recombinant HDAC1
pIC50: −log10 of the molar value.
Kind request: treat 7 as inclusive, so pIC50 at 7 or higher is class 1, anything lower is class 0.

Please tell me: is the compound Nc1ccccc1NC(=O)c1ccc(CNc2ncc(Br)s2)cc1 at or over 7 in terms of pIC50?
class 0

Please tell me: is the compound Nc1ccccc1NC(=O)c1ccc(CSc2nc3ccc(NCc4cccnc4)cc3s2)cc1 at or over 7 in terms of pIC50?
class 0

Please tell me: is the compound Cn1ccnc1SCc1ccc(C(=O)Nc2ccccc2N)cc1 at or over 7 in terms of pIC50?
class 0

Please tell me: is the compound Nc1ccccc1NC(=O)c1ccc(CNc2nc3ccc(OCCN4CCOCC4)cc3s2)cc1 at or over 7 in terms of pIC50?
class 1

---

System: HCT-116
Assay Comment: Cytotoxicity against human HCT116 cells by MTT assay
Format: functional, cell-based
Consider the following molecules; for each one, report its IC50.
Numbers only, in nM.

Here are 10 molecules together with their reported answers.
HCT-116 IC50 of COc1ccc2nc(SCc3ccc(C(=O)Nc4ccccc4N)cc3)[nH]c2c1 is 200

HCT-116 IC50 of Nc1ccccc1NC(=O)c1ccc(CSc2nc3ccc(NCc4ccccn4)cc3s2)cc1 is 1000

HCT-116 IC50 of Nc1ccccc1NC(=O)c1ccc(CNc2nc3ccccc3[nH]2)cc1 is 300

HCT-116 IC50 of Nc1ccccc1NC(=O)c1ccc(CNc2nc3ccc(OCCN4CCOCC4)cc3s2)cc1 is 200

HCT-116 IC50 of Nc1ccccc1NC(=O)c1ccc(CSc2nc3ccc(NCc4cccnc4)cc3s2)cc1 is 1000

HCT-116 IC50 of Nc1ccccc1NC(=O)c1ccc(CNc2cc(-c3ccccc3)[nH]n2)cc1 is 300

HCT-116 IC50 of Nc1ccccc1NC(=O)c1ccc(CNc2nc3cc(Cl)ccc3o2)cc1 is 200

HCT-116 IC50 of Nc1ccccc1NC(=O)c1ccc(CSc2ncc[nH]2)cc1 is 5000

HCT-116 IC50 of Cn1ccnc1SCc1ccc(C(=O)Nc2ccccc2N)cc1 is 5000

HCT-116 IC50 of Nc1ccccc1NC(=O)c1ccc(CNc2nc3ccc(Br)cc3s2)cc1 is 400

For each of the molecules below, note its IC50.
1. Nc1ccccc1NC(=O)c1ccc(CSc2nc3ccccc3s2)cc1
2. Nc1ccccc1NC(=O)c1ccc(CNc2ncc(Br)s2)cc1
3. Nc1ccccc1NC(=O)c1ccc(CSc2nnc(-c3ccccc3)o2)cc1
4. Nc1ccccc1NC(=O)c1ccc(CNc2ncc(-c3ccc(Cl)cc3)s2)cc1
5. Nc1ccccc1NC(=O)c1ccc(CSc2nc3ccccc3[nH]2)cc1
6. CSc1nnc(NCc2ccc(C(=O)Nc3ccccc3N)cc2)[nH]1

[800, 400, 400, 300, 300, 600]

---

Subject Of Test: Histone deacetylase 1 (Homo sapiens)
Assay Comment: Inhibition of recombinant HDAC1
Measurement Kind: pIC50
Numbers only, as −log10 of the molar value.

// Nc1ccccc1NC(=O)c1ccc(CSc2nc3ccc(NCCN4CCOCC4)cc3s2)cc1 : pIC50 value = 7.15

For each of the compounds below, note its pIC50.
1. Nc1ccccc1NC(=O)c1ccc(CSc2nc3ccc(NCc4ccccn4)cc3s2)cc1
2. Nc1ccccc1NC(=O)c1ccc(CNc2cc(-c3ccccc3)[nH]n2)cc1

1. 7.15
2. 7.15
